# assay.target: α1A-ARS (Homo sapiens, UniProt P35348)
# Sequence (P35348 1-466): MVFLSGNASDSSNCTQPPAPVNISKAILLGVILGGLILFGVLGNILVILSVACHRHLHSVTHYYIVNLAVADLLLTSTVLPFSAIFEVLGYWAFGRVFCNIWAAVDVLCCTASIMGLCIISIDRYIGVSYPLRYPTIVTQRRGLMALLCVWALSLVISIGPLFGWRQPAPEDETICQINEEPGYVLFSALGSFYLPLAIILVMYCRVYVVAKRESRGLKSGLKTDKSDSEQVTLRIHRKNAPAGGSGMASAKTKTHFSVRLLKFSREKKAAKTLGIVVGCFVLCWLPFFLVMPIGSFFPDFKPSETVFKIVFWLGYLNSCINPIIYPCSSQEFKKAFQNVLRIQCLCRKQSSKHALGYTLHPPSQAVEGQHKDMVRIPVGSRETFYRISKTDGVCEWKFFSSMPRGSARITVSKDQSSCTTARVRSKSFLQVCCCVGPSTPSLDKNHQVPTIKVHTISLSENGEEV
# experimental.protocol: Calcium flux assay (Calcium 6 dye) in cells expressing an α1-AR
# Assay type: cell-based
# condition.set: calcium flux, α1A-AR; mean of at least three experiments; read-out: Average PEC50
observed.property: EC50

COCc1cc(Cl)ccc1CC1=NCCN1 : 10 to 977 nM
Clc1cc2occc2cc1CC1=NCCN1 : < 9.77 nM
Cc1c(CC2=NCCN2)ccc(S(=O)(=O)C(F)F)c1Cl : > 1000 nM
FC(F)(F)c1ccc(CC2=NCCN2)c(-c2ccccc2)c1 : 10 to 977 nM
CCc1cc(C(F)(F)F)ccc1CC1=NCCN1 : < 9.77 nM
c1cc2c(cc1CC1=NCCN1)NCC21CC1 : 10 to 977 nM
Clc1ccc(CC2=NCCN2)c(N2CCCC2)c1 : 10 to 977 nM
CN(CC(F)(F)F)c1cc(C(F)(F)F)ccc1CC1=NCCN1 : > 1000 nM
CCc1cc(F)ccc1CC1=NCCN1 : 10 to 977 nM
Cc1cc(OC(F)F)ccc1CC1=NCCN1 : 10 to 977 nM
COc1ccc(CC2=NCCN2)c(C(F)(F)F)c1 : 10 to 977 nM
COc1ccccc1CC1=NCCN1 : 10 to 977 nM
Clc1ccc(CC2=NCCN2)c(-c2cnccn2)c1 : 10 to 977 nM
Clc1ccc(CC2=NCCN2)c(-c2ncco2)c1 : 10 to 977 nM
FC(F)(F)c1ccc(CC2=NCCN2)c(-n2cccn2)c1 : 10 to 977 nM
Fc1ccc(CC2=NCCN2)c(N2CCOCC2)c1 : > 1000 nM
C[C@@H](F)c1cc(Cl)ccc1CC1=NCCN1 : 10 to 977 nM
Clc1ccc(CC2=NCCN2)c(-c2ncccn2)c1 : 10 to 977 nM
Cc1cc(Cl)ccc1CC1=NCCN1 : 10 to 977 nM
Cc1ccc(C(F)(F)F)cc1CC1=NCCN1 : 10 to 977 nM
Cc1oc2ccc(CC3=NCCN3)cc2c1C : > 1000 nM
FC(F)(F)c1ccc(CC2=NCCN2)c(N2CCCCC2)c1 : 10 to 977 nM
